- Target entity: T1, hORC1(413-511) (Homo sapiens, UniProt Q13415 413-511)
- T1 sequence: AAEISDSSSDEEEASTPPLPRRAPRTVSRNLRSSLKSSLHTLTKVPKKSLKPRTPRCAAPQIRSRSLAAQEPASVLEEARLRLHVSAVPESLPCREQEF
- Experiment description: fluorescence anisotropy; 100 mM KCl; FA: 20 mM HEPES-KOH pH 7.7, 100 mM KCl (or LiCl), 1 mM EDTA, 1 mM DTT, 25 C, 2 uM DNA, 1:1 fit; NMR: same buffer with 10% D2O, 10 uM DSS, 75 uM DNA, 25 C
- Measurement parameters: protein: recombinant; tags: N-terminal GST (pGEX-6P-1) removed with PreScission protease; label: 5'-FAM (FA); label in NMR not clear; (3+1) G4 in K+, 1 strand
Readout label: Kd (nM)

binder="TTGGGTTAGGGTTAGGGTTAGGGA (structured_DNA) [teloDNA]" u=nM measured_value=227

Origin of measurements: paper PMC8036949
